Can you tell me self-splicing fitness (ln) for the items I'm about to list?
assay: self-splicing fitness, log relative to wild type (ln ratio); higher = more splicing; Tetrahymena group I intron in knt gene, E. coli kanamycin selection, DiMSum; sequences stand for … in CUCUCU…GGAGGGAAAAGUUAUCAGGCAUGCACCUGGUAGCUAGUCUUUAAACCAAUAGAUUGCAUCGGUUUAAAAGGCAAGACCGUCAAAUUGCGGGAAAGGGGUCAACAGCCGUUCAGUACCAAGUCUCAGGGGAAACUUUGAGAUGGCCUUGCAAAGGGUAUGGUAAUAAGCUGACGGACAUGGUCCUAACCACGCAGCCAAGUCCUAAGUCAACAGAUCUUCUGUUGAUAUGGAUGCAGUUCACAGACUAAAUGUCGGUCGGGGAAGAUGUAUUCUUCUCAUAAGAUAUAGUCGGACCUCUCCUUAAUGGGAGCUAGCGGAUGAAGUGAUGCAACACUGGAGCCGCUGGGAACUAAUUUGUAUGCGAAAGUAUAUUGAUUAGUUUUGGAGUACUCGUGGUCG; conditions: 30 °C;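 further: selection with 25 µg/mL kanamycin versus none on LB agar overnight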
Numbers only.

// batch mode: one self-splicing fitness (ln) value per listed entry
1. GCCAAGCAAUAUUACGAUGC
2. AGUAAGCAAUAUUACGGACU
3. CCAUAGCAAUAUUACGCGCA
4. UAUUAGCAAUAUUACGCGUG
5. GGGAAGCAAUAUUACGGUCG

Result:
[-1.7, -1.57, -2.65, -0.538, 0.00025]

// batch mode: one self-splicing fitness (ln) value per listed entry
1. UUCUAGCAAUAUUACGUAUG
2. GUUAAGCAAUAUUACGGACA

Result:
1. -3
2. -0.907

// batch mode: one self-splicing fitness (ln) value per listed entry
1. AGCGAGCAAUAUUACGAGGA
2. GACGAGCAAUAUUACGGUUA
3. ACACAGCAAUAUUACGAUGC

Result:
[-2.36, -1.65, -1.92]

// batch mode: one self-splicing fitness (ln) value per listed entry
1. UGGCAGCAAUAUUACGACCU
2. UCUCAGCAAUAUUACGAACA
3. UGGCAGCAAUAUUACGGACA
4. GGAUAGCAAUAUUACGUUCA
5. CUAUAGCAAUAUUACGACAG
6. CGAAAGCAAUAUUACGCGGG
7. GUUUAGCAAUAUUACGCCUG

Result:
1. 0.0278
2. -1.41
3. 0.0855
4. -0.502
5. 0.0925
6. -2.77
7. -2.62

----------
experiment: self-splicing fitness, log relative to wild type (ln ratio); higher = more splicing; Tetrahymena group I intron in knt gene, E. coli kanamycin selection, DiMSum; sequences stand for … in CUCUCU…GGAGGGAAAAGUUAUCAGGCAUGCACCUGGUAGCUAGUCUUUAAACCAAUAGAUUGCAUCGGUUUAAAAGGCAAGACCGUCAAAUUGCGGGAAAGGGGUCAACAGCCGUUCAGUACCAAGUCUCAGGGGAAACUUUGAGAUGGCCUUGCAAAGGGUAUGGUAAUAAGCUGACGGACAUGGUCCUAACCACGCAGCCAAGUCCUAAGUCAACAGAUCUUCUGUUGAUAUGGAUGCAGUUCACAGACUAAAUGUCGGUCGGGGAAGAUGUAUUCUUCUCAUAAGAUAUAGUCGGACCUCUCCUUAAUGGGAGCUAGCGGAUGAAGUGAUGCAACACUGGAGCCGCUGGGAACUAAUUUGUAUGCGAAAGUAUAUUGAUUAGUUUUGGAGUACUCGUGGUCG; conditions: 37 °C
Decision: self-splicing fitness (ln) compared against -0.8; not below it gives Fulfilled, below it gives Not fulfilled.

Some entries whose results are on file:
polymer-sequence	assigned-label
CAGUAGCAAUAUUACGAGCU	Fulfilled
CACCAGCAAUAUUACGUAAU	Not fulfilled
GUAGAGCAAUAUUACGGGUU	Not fulfilled

Problem: Dear colleague, could you confirm whether UGAGAGCAAUAUUACGGCCG has self-splicing fitness (ln) at or above -0.8?
Result: Not fulfilled

Problem: Again, but for UUGCAGCAAUAUUACGCCUG
Result: Not fulfilled

Problem: Again, but for GCCCAGCAAUAUUACGAGGG
Result: Not fulfilled

Problem: Again, but for ACCGAGCAAUAUUACGCUCA
Result: Fulfilled

Problem: Again, but for ACUUAGCAAUAUUACGUCGA
Result: Not fulfilled

Problem: Again, but for ACCAAGCAAUAUUACGUGCG
Result: Not fulfilled

----------
assay: self-splicing fitness, log relative to wild type (ln ratio); higher = more splicing; Tetrahymena group I intron in knt gene, E. coli kanamycin selection, DiMSum; sequences stand for … in CUCUCU…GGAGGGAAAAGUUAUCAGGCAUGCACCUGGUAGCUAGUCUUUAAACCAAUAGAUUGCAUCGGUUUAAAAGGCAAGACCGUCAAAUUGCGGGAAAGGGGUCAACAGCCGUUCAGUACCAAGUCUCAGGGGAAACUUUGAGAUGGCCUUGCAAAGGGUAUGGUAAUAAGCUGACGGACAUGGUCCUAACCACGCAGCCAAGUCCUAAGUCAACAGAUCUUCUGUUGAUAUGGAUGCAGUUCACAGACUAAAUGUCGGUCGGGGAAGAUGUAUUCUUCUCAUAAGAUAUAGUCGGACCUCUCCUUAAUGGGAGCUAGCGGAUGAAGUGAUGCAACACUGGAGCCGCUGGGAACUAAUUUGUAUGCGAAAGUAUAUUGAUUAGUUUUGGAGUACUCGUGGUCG; settings: 30 °C
Decision: self-splicing fitness (ln) compared against -2; not below it gives y, below it gives n.

Some entries whose results are on file:
polymer-sequence	assigned-label
ACUAAGCAAUAUUACGACGC	y
UGACAGCAAUAUUACGCGUC	n
CUCGAGCAAUAUUACGAUGC	n
GGCCAGCAAUAUUACGAUGA	n
GACUAGCAAUAUUACGUCUG	n
AGCAAGCAAUAUUACGUUAC	n

Problem: Dear colleague, could you confirm whether CUGAAGCAAUAUUACGUCCG has self-splicing fitness (ln) at or above -2?
Result: y

Problem: Again, but for GACCAGCAAUAUUACGAAUU
Result: y

Problem: Again, but for CAGCAGCAAUAUUACGUUUA
Result: n

Problem: Again, but for AGCUAGCAAUAUUACGAAGU
Result: n

Problem: Again, but for CCCUAGCAAUAUUACGCCCG
Result: n

Problem: Again, but for AAAGAGCAAUAUUACGUUCG
Result: y

Problem: Again, but for CGCUAGCAAUAUUACGGGUC
Result: n

Problem: Again, but for UCAAAGCAAUAUUACGUGUU
Result: n

Problem: Again, but for UUUCAGCAAUAUUACGGUAA
Result: y

Problem: Again, but for UCCUAGCAAUAUUACGAACG
Result: y

Problem: Again, but for GUCAAGCAAUAUUACGGAUC
Result: n

Problem: Again, but for AGCGAGCAAUAUUACGGCGA
Result: y

Problem: Again, but for UCUCAGCAAUAUUACGCCUA
Result: n

Problem: Again, but for UAAUAGCAAUAUUACGUCCG
Result: y

----------
assay: self-splicing fitness, log relative to wild type (ln ratio); higher = more splicing; Tetrahymena group I intron in knt gene, E. coli kanamycin selection, DiMSum; sequences stand for … in CUCUCU…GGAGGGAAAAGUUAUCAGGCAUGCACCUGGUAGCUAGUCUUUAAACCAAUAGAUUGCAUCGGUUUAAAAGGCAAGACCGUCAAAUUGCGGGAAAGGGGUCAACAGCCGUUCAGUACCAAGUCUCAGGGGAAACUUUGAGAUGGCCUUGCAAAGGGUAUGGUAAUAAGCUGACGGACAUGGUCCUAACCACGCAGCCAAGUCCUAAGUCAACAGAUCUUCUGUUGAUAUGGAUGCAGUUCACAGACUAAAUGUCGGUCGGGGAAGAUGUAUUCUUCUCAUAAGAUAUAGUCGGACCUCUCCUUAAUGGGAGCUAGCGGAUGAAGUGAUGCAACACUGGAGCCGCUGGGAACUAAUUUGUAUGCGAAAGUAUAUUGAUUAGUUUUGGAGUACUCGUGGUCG; conditions: 30 °C
experimental-endpoint: self-splicing fitness (ln)

Worked set:
polymer-sequence	observed
CGCGAGCAAUAUUACGAACG	-3.04
AAACAGCAAUAUUACGUGGG	-3.64
CUACAGCAAUAUUACGCAAA	-3.36
AUCCAGCAAUAUUACGUACA	-1.28

// batch mode: one self-splicing fitness (ln) value per listed entry
1. GCAUAGCAAUAUUACGAAGG
2. GGCUAGCAAUAUUACGAUGC

Result:
1: -2.02; 2: -1.03

// batch mode: one self-splicing fitness (ln) value per listed entry
1. GCUGAGCAAUAUUACGUCUG
2. GCUUAGCAAUAUUACGGGAA

Result:
1. -2.08
2. -0.679

----------
experiment: self-splicing fitness, log relative to wild type (ln ratio); higher = more splicing; Tetrahymena group I intron in knt gene, E. coli kanamycin selection, DiMSum; sequences stand for … in CUCUCU…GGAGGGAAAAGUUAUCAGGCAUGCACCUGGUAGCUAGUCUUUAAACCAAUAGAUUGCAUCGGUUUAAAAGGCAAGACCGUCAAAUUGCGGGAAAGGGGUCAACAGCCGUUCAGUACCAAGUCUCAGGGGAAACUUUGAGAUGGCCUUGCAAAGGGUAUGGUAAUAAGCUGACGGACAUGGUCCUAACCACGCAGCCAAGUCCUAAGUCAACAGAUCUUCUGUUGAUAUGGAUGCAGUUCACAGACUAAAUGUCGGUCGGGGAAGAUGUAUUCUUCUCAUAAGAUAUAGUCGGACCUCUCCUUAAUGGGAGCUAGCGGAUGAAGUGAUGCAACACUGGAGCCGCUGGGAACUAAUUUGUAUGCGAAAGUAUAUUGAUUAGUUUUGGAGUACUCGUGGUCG; settings: 30 °C
Consider the reported self-splicing fitness (ln) of an entry and match it to a band in bottom range: < -3; center range: ≥ -3 and < -1; top range: ≥ -1

Some entries whose results are on file:
polymer-sequence	assigned-label
GUUAAGCAAUAUUACGAAGU	center range
GCGCAGCAAUAUUACGAAGA	center range
UACUAGCAAUAUUACGUCGC	bottom range
UUACAGCAAUAUUACGCAAA	center range
GGAUAGCAAUAUUACGUAAU	center range

Problem: Please report the category associated with GACAAGCAAUAUUACGGGCC , nothing else.
Result: center range

Problem: Again, but for UCAAAGCAAUAUUACGGAAU
Result: bottom range

Problem: Again, but for CCGGAGCAAUAUUACGAGGU
Result: bottom range

Problem: Again, but for ACUGAGCAAUAUUACGUACU
Result: center range

Problem: Again, but for UCCUAGCAAUAUUACGCACU
Result: center range

Problem: Again, but for AGCAAGCAAUAUUACGCAUA
Result: center range

Problem: Again, but for GCAGAGCAAUAUUACGGACU
Result: center range
